Test system: HCT-116
Protocol notes: NCI tumour cell line growth inhibition, 48 h
Active and inactive are the calls of the source. Cut-off read from the data, not from the text of the source: active = GI50 up to about 1.1 µM and inactive = higher.

Molecule	GI50
O=C1NC2(CCCCCC2)C2CCCCCCC12O (centres undefined)	> 100 µM (inactive)
Cc1ccc(NC(=O)CC/C(CC(=O)C(C)(C)C)=N/NC(=O)C[N+](C)(C)C)cc1C	> 100 µM (inactive)
OCC(O)C(O)C(O)c1nn(-c2ccccc2)c2nc3cc(Cl)c(Cl)cc3nc12 (centres undefined)	54.5 µM (inactive)
CN(C(=O)c1cc2c(s1)sc1c(=O)n(C)c3ccccc3c12)c1ccccc1	4.93 µM (inactive)
N=c1c2ccccc2nc2oc3cc([N+](=O)[O-])ccc3n12	25.6 µM (inactive)
CC(=O)O[C@H]1CC[C@@]2(C)C(=C[C@H](c3ccc(O)cc3)[C@H]3[C@@H]4CC[C@H](OC(C)=O)[C@@]4(C)CC[C@@H]32)C1	15.8 µM (inactive)
CN1CCN(CCNc2ccc(CO)c3sc4ccccc4c(=O)c23)CC1	5.69 µM (inactive)
CC(=O)Nc1ccc(S(=O)(=O)N/N=C/CN2C(=O)c3ccccc3C2=O)cc1	> 100 µM (inactive)
Cc1cc(C)nc(NS(=O)(=O)c2ccc(Nc3c4ccccc4nc4c(C(=O)N5CCN(CCOS(C)(=O)=O)CC5)ccc(Cl)c34)cc2)n1	> 100 µM (inactive)
O=C1Nc2ccccc2N/C1=C\C(=O)c1ccccc1O	> 100 µM (inactive)
COc1ccc(COC(=O)NNC(=O)C2CSC(c3ccccc3)N2C(C)=O)cc1 (centres undefined)	> 100 µM (inactive)
C=CCNC(=O)NC(=O)CSC1=NC(=O)C2(NN1)c1ccccc1-c1ccccc12	> 10 µM (inactive)
CC(=O)OCC1OC(O[C@@H]2C[C@H]3C(C)(C)[C@H](OC(C)=O)CC[C@]3(C)[C@H]3CC[C@]4(C)C(=CC[C@H]4[C@@H](C)C[C@@H](O)[C@H](O)C(C)(C)O)[C@@]32C)C(O)C(O)C1O (some centres undefined)	14.4 µM (inactive)
COc1ccc2c(CCNS(=O)(=O)c3ccccc3)c(C(C)=O)[nH]c2c1[N+](=O)[O-]	> 100 µM (inactive)

The values you see were collected from ChEMBL document CHEMBL1201862.
